Each recorded value in this set is attributed to patent US5298523A.

Assay Details: Lymphocyte viability assay (LCV, MTT) on murine splenocytes
Type: cell-based
Test Settings: mouse, splenocytes, MLR, 5.0 × 10^-15 μg/ml, MTT; read-out: % Viability (LCV)
Recorded Endpoint: viability

Q: Quick one: viability for C=C1CC(OC)(C(O)C(=O)NC2OCOC3C2OC(CC(O)CO)C(C)(C)C3OC)OC(C)C1C (stereo not shown) [Mycalamide A, mycalamide A] ?
A: > 99%

====

Assay Details: Lymphocyte viability assay (LCV, MTT) on murine splenocytes
Format: cell-based
Test Settings: mouse, splenocytes, mitogen study, 5.0 × 10^-1 μg/ml; read-out: LCV, % viability
Recorded Endpoint: viability (%)
Give the quantity in %, number only.

Q: Could you tell me which viability is on file for C=C1CC(OC)(C(O)C(=O)NC2OCOC3C2OC(CC(O)CO)C(C)(C)C3OC)OC(C)C1C (stereo not shown) [Mycalamide A, mycalamide A] ?
A: 4

====

Assay Details: T cell viability by trypan blue exclusion
Type: cell-based, murine
Test Settings: t cells; 1 nM, Experiment 1, 20 hours; read-out: percentage of trypan blue-positive cells
Recorded Endpoint: cytotoxicity at 20 h, 0.001 µM

Q: Any idea what its cytotoxicity at 20 h, 0.001 µM is? The molecule is C=CC[C@@H]1/C=C(\C)C[C@H](C)C[C@H](OC)[C@H]2O[C@@](O)(C(=O)C(=O)N3CCCC[C@H]3C(=O)O[C@H](/C(C)=C/[C@@H]3CC[C@@H](O)[C@H](OC)C3)[C@H](C)[C@@H](O)CC1=O)[C@H](C)C[C@@H]2OC [FK506, reference compound]
A: < 2%

====

Assay Details: Lymphocyte viability assay (LCV, MTT) on murine splenocytes
Type: cell-based
Test Settings: mouse, splenocytes, MLR, 5.0 × 10^-19 μg/ml, MTT; read-out: % Viability (LCV)
Recorded Endpoint: viability

Q: Given the molecule C=C1CC(OC)(C(O)C(=O)NC2OCOC3C2OC(CC(O)CO)C(C)(C)C3OC)OC(C)C1C (stereo not shown) [Mycalamide A, mycalamide A] , what is its reported viability?
A: > 99%

====

Assay Details: Lymphocyte viability assay (LCV, MTT) on murine splenocytes
Format: cell-based
Test Settings: mouse, splenocytes, MLR, 5.0 × 10^-12 μg/ml, MTT; read-out: % Viability (LCV)
Recorded Endpoint: viability

Q: Bench note: what viability did C=C1CC(OC)(C(O)C(=O)NC2OCOC3C2OC(CC(O)CO)C(C)(C)C3OC)OC(C)C1C (stereo not shown) [Mycalamide A, mycalamide A] show?
A: > 99%

====

Assay Details: Lymphocyte viability assay (LCV, MTT) on murine splenocytes
Assay type: cell-based
Test Settings: mouse, splenocytes, MLR, 5.0 × 10^-6 μg/ml, MTT; read-out: % Viability (LCV)
Recorded Endpoint: viability (%)
Expressed in %, but write only the number.

Q: Name the recorded viability for C=C1CC(OC)(C(O)C(=O)NC2OCOC3C2OC(CC(O)CO)C(C)(C)C3OC)OC(C)C1C (stereo not shown) [Mycalamide A, mycalamide A] .
A: 83

====

Assay Details: Lymphocyte viability assay (LCV, MTT) on human PBL
Type: cell-based
Test Settings: human MLR, 5.0 × 10^-2 μg/ml, MTT
Recorded Endpoint: viability
Field note: include the unit after the figure.

Q: What viability value was documented for this compound, C=C1CC(OC)(C(O)C(=O)NC2OCOC3C2OC(CC(O)CO)C(C)(C)C3OC)OC(C)C1C (stereo not shown) [Mycalamide A, mycalamide A] ?
A: 52%
